System: 475296-252-R-J1-PDC spheroid viability;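 further: spheroids exposed to agents for seven days before readout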
ASSAY_INFO: Anticancer human tumor 475296-252-R-J1-PDC patient-derived rectal carcinoma cell line growth inhibition [PI3K]
CONDITION_DESCRIPTION: second compound 0.316 µM; first compound 0.316 µM; stronger effect = lower value; spheroids with HUVEC and MSC
Excerpt: Combinatorial screen of targeted agents with the PI3K inhibitors inavolisib, alpelisib, duvelisib, and copanlisib in multi-cell type tumor spheroids A high-throughput screen of multi-cell type tumor spheroids was designed to identify active combinations of targeted small molecules and PI3K pathway inhibitors. […] Compounds. […] If the clinical Cmax for an agent had not been determined, the highest concentration tested was 10 microM. […]
// viability, T/C lookup, one value per entry
Express your answer in %, writing the number without its unit.

A selection of reference data follows.
[[record]]
compound = "CC1(C)CCC(Nc2ncc(C(F)(F)F)c(-c3c[nH]c4c(P(C)(C)=O)c(C#N)ccc34)n2)CN1 (stereo not drawn) + Cc1nc(NC(=O)N2CCCC2C(N)=O)sc1-c1ccnc(C(C)(C)C(F)(F)F)c1"
assay_result = 97.3

[[record]]
compound = "Cn1nccc1Nc1nccc(-c2ccn(C(CO)c3ccc(Cl)c(F)c3)c(=O)c2)n1 (stereo not drawn) + Cc1nc(NC(=O)N2CCCC2C(N)=O)sc1-c1ccnc(C(C)(C)C(F)(F)F)c1"
assay_result = 87.2


Now let's try a different one.
Ask: Need viability, T/C, item CCCS(=O)(=O)Nc1ccc(F)c(C(=O)c2c[nH]c3ncc(-c4ccc(Cl)cc4)cc23)c1F + Cc1nc(NC(=O)N2CCCC2C(N)=O)sc1-c1ccnc(C(C)(C)C(F)(F)F)c1
Result: 98.2
